System: MDR1
Assay: Blood-brain-barrier (BBB) penetration potential via MDCK-MDR1 permeability assay
Conditions: dog, MDCK-MDR1, pH 7.4, MDCK-MDR1: Efflux
Flag rule - efflux ratio at 120 min, 5 μM less than 30 flags YES; the remaining entries get NO.

Solved entries (count: 3):
Cc1nc2cc(-c3ccc(N(C)[C@H]4C[C@@H]5CC[C@H]([C@H]4F)N5C)nn3)c(O)cc2c(=O)n1C [Compound 105B] : NO
CN(c1ccc(-c2cc3cnccc3cc2O)nn1)[C@H]1C[C@@H]2CCC[C@@H](N2)[C@H]1F [Compound 121B] : YES
CN(c1ccc(-c2cc3ncn(C)c(=O)c3cc2O)nn1)[C@@H]1C[C@H]2CC[C@@H]([C@@H]1F)N2C [Compound 101A] : YES

Exercise: # check: efflux ratio at 120 min, 5 μM < 30 for Cc1nc2cc(O)c(-c3ccc(N(C)[C@@H]4C[C@H]5CC[C@H](N5)[C@@H]4F)nn3)cc2o1 [Compound 117A]
Solution: YES

----------
Tested on: mHTT protein in GM04724 (CAG 70/20) Huntington's disease patient lymphoblast cells
Assay: mHTT protein assay, 2B7-MW1 assay via Mesoscale Discovery (MSD)
Assay type: cell-based, human
Conditions: GM04724 Huntington's disease patient lymphoblasts
pEC50: −log10 of the molar value.
readout: pEC50

Some entries whose results are on file:
O=c1c2cc(O)c(-c3ccc(N(C4CC4)[C@H]4C[C@@H]5CC[C@@H](N5)[C@H]4F)nn3)cc2ncn1CC(F)(F)F (single isomer, unassigned) [Compound 60B] : 6.30 to 7.00
CN(c1ccc(-c2cc3oc(=O)n(C)c3cc2O)nn1)[C@@H]1C[C@H]2CC[C@H](N2)[C@@H]1F (single isomer, unassigned) [Compound 79A] : 7.82 to 11.00
CN(c1ccc(-c2ccc(-c3ccccn3)cc2O)nn1)[C@H]1C[C@@H]2CCC[C@@H](N2)[C@H]1F [Compound 23B] : 7.30 to 7.80
CN(c1ccc(-c2cc(C#N)c(F)cc2O)nn1)[C@H]1C[C@@H]2CC[C@@H](N2)[C@H]1F [Compound 72B] : 6.30 to 7.00

Input CN(c1ccc(-c2ccc(-n3cnc(C#N)c3)cc2O)nn1)[C@H]1C[C@@H]2CCC[C@@H](N2)[C@H]1F [Compound 63B] . Output pEC50: 7.30 to 7.80

----------
Test system: MDR1-MDCK cell monolayers
Assay: Blood-brain-barrier (BBB) penetration potential via MDCK-MDR1 permeability assay
Settings: B-A
Measured MDCK-MDR1: % Recov B-A, listed per entry.
Lab book: enter the figure in %, no units written.

Some compounds with recorded MDCK-MDR1: % Recov B-A:
Cc1nc2cc(-c3ccc(N(C)[C@H]4C[C@@H]5CC[C@@H](N5)[C@H]4F)nn3)c(O)cc2c(=O)n1CC(F)(F)F [Compound 113B] : 123
CN(c1ccc(-c2cc3oc(C(=O)N4CCC4)cc3cc2O)nn1)[C@@H]1C[C@H]2CC[C@H](N2)[C@@H]1F [Compound 112A] : 78
CN(c1ccc(-c2cc3ncn(C)c(=O)c3cc2O)nn1)[C@H]1C[C@@H]2CC[C@H]([C@H]1F)N2C [Compound 101B] : 119

Now, please, on to the next compound.
Short answer on MDR1-MDCK cell monolayers for CN(c1ccc(-c2cc3oc(C(=O)N4CCC4)cc3cc2O)nn1)[C@H]1C[C@@H]2CC[C@H]([C@H]1F)N2C [Compound 107B] , MDCK-MDR1: % Recov B-A: 84
